Target: recombinant human ALX receptor (Homo sapiens)
Sequence (P25090 1-351): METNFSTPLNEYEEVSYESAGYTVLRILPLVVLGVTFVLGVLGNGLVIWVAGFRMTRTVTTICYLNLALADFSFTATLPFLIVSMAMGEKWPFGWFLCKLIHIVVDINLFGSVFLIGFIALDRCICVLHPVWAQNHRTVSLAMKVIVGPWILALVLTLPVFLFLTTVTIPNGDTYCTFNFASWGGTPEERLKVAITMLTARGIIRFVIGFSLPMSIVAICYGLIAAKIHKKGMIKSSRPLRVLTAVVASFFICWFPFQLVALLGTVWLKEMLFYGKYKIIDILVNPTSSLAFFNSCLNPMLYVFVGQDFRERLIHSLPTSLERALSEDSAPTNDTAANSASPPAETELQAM
Assay: Intracellular calcium measurements (FLIPR), ALX receptor agonistic activity
Conditions: HEK293-hALXR-Gα16 cells, Fluo-4 calcium fluorescence, normalized to 10 nM WKYMVm
METRIC: pEC50
Here pEC50 is given on a logarithmic scale as minus log10 of the concentration in mol/L.

Reference set, count: 5
# SUBSTANCE SMILES, ASSAY TARGET, EXPERIMENTAL VALUE
rows = [
    ("CC(=O)c1ccc(Cn2ccc(NC(=O)c3nc(C)oc3-c3cccc(-c4ccccc4)c3)n2)o1", "recombinant human ALX receptor (Homo sapiens)", 7.22),
    ("CC(=O)c1ccc(Cn2cc(NC(=O)c3nc(Cc4ccccc4)oc3-c3ccccc3)cn2)o1", "recombinant human ALX receptor (Homo sapiens)", 6.70),
    ("COCc1nc(C(=O)Nc2cnn(Cc3ccc(C(C)=O)o3)c2)c(-c2ccccc2)o1", "recombinant human ALX receptor (Homo sapiens)", 7.21),
    ("CC(=O)c1cncc(Cn2cc(NC(=O)OCc3ccccc3Cl)cn2)c1", "recombinant human ALX receptor (Homo sapiens)", 6.40),
    ("CC(=O)CCCCn1ccc(NC(=O)c2ncoc2-c2ccccc2)n1", "recombinant human ALX receptor (Homo sapiens)", 6.02),
]

Input line: Item CC(F)(F)c1ccc(Cn2ccc(NC(=O)OCc3ccccc3Cl)n2)o1 has what recorded pEC50?
Output line: 7.54

Input line: Item CC(F)(F)CCCCn1cc(NC(=O)c2ncoc2-c2ccccc2)cn1 has what recorded pEC50?
Output line: 6.71

Input line: Item CC(=O)c1ccc(Cn2cc(NC(=O)c3nc(C4CC4)oc3-c3ccccc3)cn2)s1 has what recorded pEC50?
Output line: 7.31

Input line: Item CC(=O)c1cnc(Cn2ccc(NC(=O)c3ncoc3-c3ccccc3)n2)o1 has what recorded pEC50?
Output line: 7.14

###

We begin with a simple list: items and their reported EC50.
Biological target: recombinant human ALX receptor (Homo sapiens)
Sequence (P25090 1-351): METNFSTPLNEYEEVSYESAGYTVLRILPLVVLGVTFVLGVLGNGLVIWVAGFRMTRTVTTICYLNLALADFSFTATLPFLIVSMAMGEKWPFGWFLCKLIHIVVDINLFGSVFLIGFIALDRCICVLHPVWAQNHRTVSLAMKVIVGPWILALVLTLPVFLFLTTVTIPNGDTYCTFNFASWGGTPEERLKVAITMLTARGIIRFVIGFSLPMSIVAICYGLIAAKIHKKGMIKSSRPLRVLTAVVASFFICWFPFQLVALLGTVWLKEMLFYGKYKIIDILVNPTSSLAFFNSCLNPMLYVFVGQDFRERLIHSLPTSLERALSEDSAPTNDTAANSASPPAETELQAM
Experiment: Intracellular calcium measurements (FLIPR), ALX receptor agonistic activity
Details: HEK293-hALXR-Gα16 cells, Fluo-4 calcium fluorescence, normalized to 10 nM WKYMVm
Respond numerically; units are µM and should not be typed.

Reference set, count: 5
# SUBSTANCE SMILES, U, EC50
measured = [
    ("CC(=O)c1csc(Cn2ccc(NC(=O)c3ncoc3-c3cccc(N(C)C)c3)n2)n1", "µM", 0.182),
    ("CC(F)(F)CCCCn1ccc(NC(=O)c2ncoc2-c2ccccc2)n1", "µM", 0.899),
    ("CC(=O)c1ccc(Cn2cc(NC(=O)c3ncoc3-c3ccnc(F)c3)cn2)o1", "µM", 0.179),
    ("CC(=O)c1ccc(Cn2ccc(NC(=O)/C=C/c3cccc(C(F)(F)F)c3F)n2)o1", "µM", 0.095),
    ("COCCc1cccc(-c2ocnc2C(=O)Nc2ccn(Cc3ccc(C(C)=O)o3)n2)c1", "µM", 0.018),
]

Input line: Item CC(F)(F)CCCCn1cc(NC(=O)OCc2ccccc2Cl)cn1 has what recorded EC50?
Output line: 0.028

Input line: Item COc1ccc(-c2ocnc2C(=O)Nc2ccn(Cc3ccc(C(C)=O)o3)n2)cc1 has what recorded EC50?
Output line: 0.198

Input line: Item CC(=O)c1ncc(Cn2ccc(NC(=O)c3ncoc3-c3ccccc3)n2)o1 has what recorded EC50?
Output line: 0.143

###

biological target: recombinant human ALX receptor (Homo sapiens); test: Intracellular calcium measurements (FLIPR), ALX receptor agonistic activity; conditions: HEK293-hALXR-Gα16 cells, Fluo-4 calcium fluorescence, normalized to 10 nM WKYMVm
METRIC: EC50 (µM)
Respond numerically; units are µM and should not be typed.

Reference set, count: 5
# COMPOUND, ASSAY TARGET, U, EC50
records = [
    ("CCc1ccccc1COC(=O)Nc1cnn(Cc2ccc(C(C)(F)F)o2)c1", "recombinant human ALX receptor (Homo sapiens)", "µM", 0.027),
    ("CC(F)(F)c1ccc(Cn2ccc(NC(=O)c3ncoc3-c3ccccc3)n2)o1", "recombinant human ALX receptor (Homo sapiens)", "µM", 0.31),
    ("CC(F)(F)c1ccc(Cn2cc(NC(=O)OCc3ccccc3Cl)cn2)o1", "recombinant human ALX receptor (Homo sapiens)", "µM", 0.033),
    ("CC(=O)c1ccc(Cn2cc(NC(=O)OCc3ccc(C(F)(F)F)cc3)cn2)o1", "recombinant human ALX receptor (Homo sapiens)", "µM", 0.053),
    ("CC(F)CCCCn1cc(NC(=O)OCc2ccccc2Cl)cn1 (centres unmarked)", "recombinant human ALX receptor (Homo sapiens)", "µM", 0.118),
]

Input line: Item CC(=O)CCCCn1ccc(NC(=O)/C=C/c2ccccc2C(F)(F)F)n1 has what recorded EC50?
Output line: 0.067

Input line: Item CC(=O)c1cc(Cn2cc(NC(=O)c3ncoc3-c3ccccc3)cn2)cs1 has what recorded EC50?
Output line: 0.083

Input line: Item Cc1ccc(F)c(COC(=O)Nc2ccn(CCCCC(C)(F)F)n2)c1F has what recorded EC50?
Output line: 0.025

Input line: Item CC(F)(F)c1ccc(Cn2ccc(NC(=O)OCc3cccc(C(F)(F)F)c3)n2)o1 has what recorded EC50?
Output line: 0.027

Input line: Item O=C(Nc1cnn(Cc2ccc(C(=O)C3CC3)o2)c1)OCc1ccccc1Cl has what recorded EC50?
Output line: 0.205

Input line: Item CC(=O)CCCCn1cc(NC(=O)c2ncoc2-c2ccccc2)cn1 has what recorded EC50?
Output line: 0.191

Input line: Item CC(=O)c1csc(Cn2cc(NC(=O)OCc3ccccc3Cl)cn2)c1 has what recorded EC50?
Output line: 0.094

Input line: Item CC(=O)CCCCn1cc(NC(=O)/C=C/c2ccccc2Cl)cn1 has what recorded EC50?
Output line: 0.33

Input line: Item CC(=O)c1nc(Cn2cc(NC(=O)OCc3ccccc3Cl)cn2)cs1 has what recorded EC50?
Output line: 0.805

Input line: Item CC(=O)c1cccc(Cn2cc(NC(=O)OCc3ccccc3Cl)cn2)c1 has what recorded EC50?
Output line: 0.056

Input line: Item CC(=O)c1ccc(Cn2cc(NC(=O)c3nc(C)sc3-c3cccc(C)c3)cn2)s1 has what recorded EC50?
Output line: 0.17

Input line: Item CC(=O)c1cnc(Cn2cc(NC(=O)c3ncoc3-c3ccccc3)cn2)s1 has what recorded EC50?
Output line: 0.445

Input line: Item CS(=O)(=O)c1ccc(Cn2cc(NC(=O)c3ncoc3-c3ccccc3)cn2)o1 has what recorded EC50?
Output line: 0.486

Input line: Item CC(=O)c1ccc(Cn2ccc(NC(=O)c3ncoc3-c3cccc(-c4ccccc4)c3)n2)o1 has what recorded EC50?
Output line: 0.029

Input line: Item CC(F)(F)c1ccc(Cn2cc(NC(=O)c3ncoc3-c3ccccc3)cn2)o1 has what recorded EC50?
Output line: 0.046

###

We begin with a simple list: items and their reported pEC50.
molecular target: recombinant human ALX receptor (Homo sapiens, UniProt P25090); construct: expressed in transfected cells; host or cells: HEK293 (HEK293-hALXR-Gα16); assay: Intracellular calcium measurements (FLIPR), ALX receptor agonistic activity; format: cell-based; conditions: HEK293-hALXR-Gα16 cells, Fluo-4 calcium fluorescence, normalized to 10 nM WKYMVm
Here pEC50 is given on a logarithmic scale as minus log10 of the concentration in mol/L.

Input line: Give the reported pEC50 for CC(=O)c1cccc(Cn2cc(NC(=O)c3ncoc3-c3ccccc3)cn2)n1 (system: recombinant human ALX receptor (Homo sapiens, UniProt P25090)).
Output line: 6.09

Input line: Give the reported pEC50 for CC(=O)c1ccc(Cn2cc(NC(=O)c3ncoc3-c3cccc(C#N)c3)cn2)s1 (system: recombinant human ALX receptor (Homo sapiens, UniProt P25090)).
Output line: 7.64

Input line: Give the reported pEC50 for CC(=O)c1ccc(Cn2ccc(NC(=O)c3nc(CN)oc3-c3ccccc3)n2)o1 (system: recombinant human ALX receptor (Homo sapiens, UniProt P25090)).
Output line: 6.14

Input line: Give the reported pEC50 for CC(=O)c1ccc(Cn2ccc(NC(=O)c3ncoc3-c3ccccc3)n2)s1 (system: recombinant human ALX receptor (Homo sapiens, UniProt P25090)).
Output line: 7.13

Input line: Give the reported pEC50 for CC(=O)c1ncc(Cn2cc(NC(=O)c3ncoc3-c3ccccc3)cn2)s1 (system: recombinant human ALX receptor (Homo sapiens, UniProt P25090)).
Output line: 7.00

Input line: Give the reported pEC50 for CC(=O)c1ccc(Cn2cc(NC(=O)c3ncoc3-c3cccc(C(F)(F)F)n3)cn2)o1 (system: recombinant human ALX receptor (Homo sapiens, UniProt P25090)).
Output line: 7.18

Input line: Give the reported pEC50 for CC(=O)c1nc(Cn2cc(NC(=O)OCc3ccccc3Cl)cn2)co1 (system: recombinant human ALX receptor (Homo sapiens, UniProt P25090)).
Output line: 7.47

Input line: Give the reported pEC50 for CC(=O)CCCCn1cc(NC(=O)OC(C)c2ccccc2)cn1 (racemic) (system: recombinant human ALX receptor (Homo sapiens, UniProt P25090)).
Output line: 7.16
